Each recorded value in this set is attributed to patent US20200399712A1.

system: HPV-16; assay: qPCR sensitivity against HPV-HNSCC tumor samples diluted among 10 ng normal human DNA; details: Sample # 31
MEASURED_ATTRIBUTE: Threshold of tumor cell numbers for HPV-16 detection (tumor cells)
Write down the numeric answer in tumor cells and omit the unit.

HR E5L2-4: primer/probe set for junction between E5 and L2, SEQ ID NO: 55-57 (same as SEQ ID NO: 4-6) (nucleic acid, chemistry not given here) DNA 1: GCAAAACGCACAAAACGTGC DNA 2: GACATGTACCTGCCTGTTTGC DNA 3: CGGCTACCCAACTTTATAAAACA
0.6

Please report the measured Threshold of tumor cell numbers for HPV-16 detection for BR E1-6: HPV-16 E1 region primer/probe set, SEQ ID NO: 43-45 (nucleic acid, chemistry not given here) DNA 1: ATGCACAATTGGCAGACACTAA DNA 2: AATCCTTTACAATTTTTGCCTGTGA DNA 3: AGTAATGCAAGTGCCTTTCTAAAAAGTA
0.6
